Biological target: human recombinant L1196M ALK kinase domain (amino acids 1093-1411) (Homo sapiens, UniProt Q9UM73, L1196M)
Construct: ALK kinase domain (amino acids 1093-1411); made in house
Assay: L1196M mutant ALK enzyme assay (microfluidic mobility shift)
Assay type: biochemical
Details: ATP 60 μM, 0.5 nM enzyme, competitive inhibition fit; read-out: L1196M ALK enzyme assay (Ki)
pKi: −log10 of the molar value.
OUTCOME MEASURE: pKi

// known answers, use as guide
# COMPOUND, pKi
rows = [
    ("C[C@H]1Oc2cc(cnc2N)-c2c(nn(C)c2C#N)CNC(=O)c2ccc(F)cc21", 7.78),
    ("CN1Cc2nn(C)c(C#N)c2-c2cnc(N)c(c2)OC(CF)c2cc(F)ccc2C1=O (single isomer, unassigned) [Example 85]", 9.89),
    ("Cc1nn(C)c2c1-c1cnc(N)c(c1)OC(C)c1cc(F)ccc1C(=O)N(C1CC1)C2 (single isomer, unassigned) [Example 11]", 8.96),
    ("C[C@H]1Oc2cc(cnc2N)-c2cc(S(C)(=O)=O)ccc2CN(C)Cc2ccc(F)cc21", 8.96),
]

a = C[C@H]1Oc2cc(cnc2N)-c2c(nnn2CC2CCC2)CN(C)C(=O)c2ccc(F)cc21
b = Cc1n[nH]c2c1-c1cnc(N)c(c1)OCc1cc(F)ccc1OCCC2
In: Of the pair a and b , name the member with the lesser recorded pKi. Mark your selection by writing its label.
Out: a

1 = CC1Oc2cc(cnc2N)-c2c(nn(C)c2C2CC2)CN(C)C(=O)c2ccc(F)cc21 (single isomer, unassigned) [Example 15]
2 = COc1c2c(nn1C)CN(C)C(=O)c1ccc(F)cc1C(C)Oc1cc-2cnc1N (single isomer, unassigned) [Example 20]
In: Which item exceeds the other in pKi, 1 or 2 ? API: response body contains the label of the selected item.
Out: 1
(1: 8.60, 2: 6.35)

P = CC(C)n1nc2c(c1C#N)-c1cnc(N)c(n1)O[C@H](C)c1cc(F)ccc1C(=O)N(C)C2
Q = C[C@H]1Oc2nc(cnc2N)-c2c(C(N)=O)noc2CN(C)C(=O)c2ccc(F)cc21
In: # compare pKi for P vs Q ; return the one with the smaller value Bench note: the answer is the label of the chosen record.
Out: Q
(Q: 7.55, P: 9.68)

a = CCc1noc2c1-c1cnc(N)c(c1)O[C@H](C)c1cc(F)ccc1C(=O)N(C)C2
b = CC1Oc2nc(cnc2N)-c2c(nn(C)c2C#N)COCc2ccc(F)cc21 (single isomer, unassigned) [Example 105]
In: Recorded pKi values differ for a and b ; which one is higher? Your answer should be the label attached to the chosen record.
Out: a

A = COc1nn(C)c2c1-c1cnc(N)c(n1)OCc1cc(F)ccc1C(=O)N(C)C2C (single isomer, unassigned) [Example 123]
B = CC(C)Cn1nnc2c1-c1cnc(N)c(c1)O[C@H](C)c1cc(F)ccc1C(=O)N(C)C2
C = C[C@H]1Oc2nc(cnc2N)-c2c(C#N)noc2CN(C)C(=O)c2ccc(F)cc21
D = C[C@H]1Oc2cc(cnc2N)-c2c(nc3ccccn23)CN(C)C(=O)c2ccc(F)cc21
E = CCn1ncc2c1-c1cnc(N)c(c1)O[C@H](C)c1cc(F)ccc1C(=O)N(C)C2
In: Please put the entries in order of rising pKi. Note for the reader: the ranking is given by listing the labels in the order requested.
Out: A, B, E, C, D

P = Cn1ncc2c1-c1cnc(N)c(c1)OCc1cc(F)ccc1OCCCCC2
Q = C[C@H]1Oc2cc(cnc2N)-c2c(noc2C#N)CN(C)C(=O)c2ccc(F)cc21
R = CCc1onc2c1-c1cnc(N)c(n1)O[C@H](C)c1cc(F)ccc1C(=O)N(C)C2
In: Task field, ranking: reported pKi, descending order. Reply: labels, ordered per the request.
Out: R, P, Q
(R: 8.92, P: 8.54, Q: 7.62)

A = COc1nccc2c1-c1cnc(N)c(n1)OC(C)c1cc(F)ccc1C(=O)N(C)C2 (single isomer, unassigned) [Example 31]
B = CN1Cc2nn(C)c(C#N)c2-c2cnc(N)c(c2)OCc2cc(F)ccc2C1=O
In: Param pair: A , B . Output: the one whose pKi is numerically greater. Returns: label corresponding to the selected item.
Out: B

1 = C[C@H]1Oc2cc(cnc2N)-c2c(C#N)noc2CN(C)C(=O)c2ccc(F)cc21
2 = CC1Oc2cc(cnc2N)-c2c(nn(C)c2C#N)CN(C)C(=O)c2c(F)cccc21 (single isomer, unassigned) [Example 53]
3 = CC1Cc2cc(cnc2N)-c2c(nn(C)c2C#N)CN(C)C(=O)c2ccc(F)cc21 (single isomer, unassigned) [Example 63]
In: Endpoint returns the given compounds ordered by ascending pKi. Response format: the labels, sorted as the prompt asks.
Out: 2, 1, 3
(2: 6.79, 1: 7.75, 3: 9.89)
